# tested-on: GluN1/2A receptors (Rattus norvegicus, UniProt P35439+Q00959)
# Sequence (Q00959 23-1464, other chains not shown): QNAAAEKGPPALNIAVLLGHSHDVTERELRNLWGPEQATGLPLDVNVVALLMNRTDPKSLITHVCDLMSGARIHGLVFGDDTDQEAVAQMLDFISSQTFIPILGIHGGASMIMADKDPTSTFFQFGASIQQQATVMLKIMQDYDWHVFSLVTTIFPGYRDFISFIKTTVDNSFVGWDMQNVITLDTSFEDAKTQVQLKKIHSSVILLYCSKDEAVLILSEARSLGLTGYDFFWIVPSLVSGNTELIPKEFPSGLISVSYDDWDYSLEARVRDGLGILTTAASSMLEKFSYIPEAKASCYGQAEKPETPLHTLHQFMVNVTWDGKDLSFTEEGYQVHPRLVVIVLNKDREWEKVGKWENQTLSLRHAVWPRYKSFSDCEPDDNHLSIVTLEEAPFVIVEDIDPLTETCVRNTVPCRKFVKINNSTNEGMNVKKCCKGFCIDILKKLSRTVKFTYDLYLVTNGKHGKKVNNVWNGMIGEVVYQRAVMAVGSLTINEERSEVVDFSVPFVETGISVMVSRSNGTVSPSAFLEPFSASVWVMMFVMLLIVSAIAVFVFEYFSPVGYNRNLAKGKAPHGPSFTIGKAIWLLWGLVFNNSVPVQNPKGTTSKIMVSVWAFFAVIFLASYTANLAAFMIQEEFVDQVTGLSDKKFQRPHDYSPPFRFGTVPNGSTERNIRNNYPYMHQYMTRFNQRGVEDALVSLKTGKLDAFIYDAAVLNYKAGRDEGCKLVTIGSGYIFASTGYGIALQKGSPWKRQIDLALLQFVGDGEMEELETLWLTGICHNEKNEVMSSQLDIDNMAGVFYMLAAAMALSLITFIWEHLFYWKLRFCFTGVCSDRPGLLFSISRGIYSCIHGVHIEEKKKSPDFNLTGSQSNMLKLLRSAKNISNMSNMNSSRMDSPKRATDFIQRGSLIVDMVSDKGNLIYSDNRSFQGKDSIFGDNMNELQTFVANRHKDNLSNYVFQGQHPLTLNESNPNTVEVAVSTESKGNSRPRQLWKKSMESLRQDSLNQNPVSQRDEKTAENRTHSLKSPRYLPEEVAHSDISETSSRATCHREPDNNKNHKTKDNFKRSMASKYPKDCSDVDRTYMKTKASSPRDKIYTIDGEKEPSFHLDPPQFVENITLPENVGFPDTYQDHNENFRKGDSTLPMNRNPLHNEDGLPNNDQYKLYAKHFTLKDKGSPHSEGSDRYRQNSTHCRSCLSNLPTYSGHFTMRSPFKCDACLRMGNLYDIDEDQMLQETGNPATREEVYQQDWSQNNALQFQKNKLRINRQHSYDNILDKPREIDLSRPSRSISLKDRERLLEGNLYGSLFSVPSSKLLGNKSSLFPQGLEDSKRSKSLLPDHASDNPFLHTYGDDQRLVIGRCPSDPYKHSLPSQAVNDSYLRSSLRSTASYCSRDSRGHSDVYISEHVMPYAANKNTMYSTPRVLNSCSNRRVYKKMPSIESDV
quantity-name: IC50 (nM)

1: N[C@H](C[C@H]1CC(C(=O)O)=NN1c1ccc(Cl)cc1)C(=O)O [4b]
2: N[C@H](C[C@H]1CC(C(=O)O)=NN1c1ccc(F)cc1)C(=O)O [4a]
3: N[C@H](C[C@H]1CC(C(=O)O)=NN1c1ccc(I)cc1)C(=O)O [4d]
Data request: Quick favor: sort the compounds up above by IC50, largest first. Please write the labels in the order that was asked for.
Data returned: 3, 2, 1
(3: 910 nM, 2: 160 nM, 1: 98 nM)

A: N[C@H](C[C@H]1CC(C(=O)O)=NN1c1ccc(Br)cc1)C(=O)O [4c]
B: Cc1ccc(N2N=C(C(=O)O)C[C@@H]2C[C@@H](N)C(=O)O)cc1 [4e]
Data request: Between A and B , which one shows the larger IC50 value? Reply briefly: the label of your chosen item.
Data returned: B
(B: 180 nM, A: 91 nM)

---

# tested-on: GluN1/2D receptors (Rattus norvegicus, UniProt P35439+Q62645)
# Sequence (Q62645 28-1323, other chains not shown): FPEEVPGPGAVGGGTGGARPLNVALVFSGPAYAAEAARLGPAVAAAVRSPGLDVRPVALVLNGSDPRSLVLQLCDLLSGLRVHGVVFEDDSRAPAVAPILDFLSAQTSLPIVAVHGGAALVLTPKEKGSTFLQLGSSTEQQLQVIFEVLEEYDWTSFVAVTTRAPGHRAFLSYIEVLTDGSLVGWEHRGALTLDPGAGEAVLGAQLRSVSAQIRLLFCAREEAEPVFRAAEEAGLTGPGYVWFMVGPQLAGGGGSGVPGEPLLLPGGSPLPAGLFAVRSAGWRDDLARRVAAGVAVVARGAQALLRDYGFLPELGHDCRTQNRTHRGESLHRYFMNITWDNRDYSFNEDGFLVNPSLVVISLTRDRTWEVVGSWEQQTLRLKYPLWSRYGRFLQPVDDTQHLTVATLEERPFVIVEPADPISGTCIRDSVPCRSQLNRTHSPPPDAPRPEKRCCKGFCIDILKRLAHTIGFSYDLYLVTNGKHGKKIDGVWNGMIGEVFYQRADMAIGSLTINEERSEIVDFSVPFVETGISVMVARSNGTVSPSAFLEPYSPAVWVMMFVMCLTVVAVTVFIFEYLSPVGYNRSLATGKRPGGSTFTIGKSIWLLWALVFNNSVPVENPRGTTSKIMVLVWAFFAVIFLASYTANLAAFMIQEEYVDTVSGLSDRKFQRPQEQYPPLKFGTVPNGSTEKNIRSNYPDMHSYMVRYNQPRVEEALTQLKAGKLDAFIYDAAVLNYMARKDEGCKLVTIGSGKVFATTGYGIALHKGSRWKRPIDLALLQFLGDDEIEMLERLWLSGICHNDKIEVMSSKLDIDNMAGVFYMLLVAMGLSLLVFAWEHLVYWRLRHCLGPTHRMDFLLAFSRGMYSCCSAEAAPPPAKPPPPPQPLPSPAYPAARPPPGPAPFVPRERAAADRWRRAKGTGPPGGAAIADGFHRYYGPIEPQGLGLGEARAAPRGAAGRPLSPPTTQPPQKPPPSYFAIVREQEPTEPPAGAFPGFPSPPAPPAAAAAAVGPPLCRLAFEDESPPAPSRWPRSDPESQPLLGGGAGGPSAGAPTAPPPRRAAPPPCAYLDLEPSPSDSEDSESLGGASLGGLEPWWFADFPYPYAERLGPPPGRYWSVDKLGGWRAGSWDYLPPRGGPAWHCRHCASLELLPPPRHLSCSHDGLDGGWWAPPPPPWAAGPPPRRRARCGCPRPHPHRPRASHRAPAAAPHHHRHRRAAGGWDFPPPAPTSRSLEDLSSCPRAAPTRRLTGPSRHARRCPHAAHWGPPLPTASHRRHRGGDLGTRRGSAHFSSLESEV
quantity-name: IC50 (µM)

# test-smiles, quantity-name, units-symbol, result-number
records = [
    ("N[C@H](C[C@H]1CC(C(=O)O)=NN1c1ccc(Cl)cc1)C(=O)O", "IC50", "µM", 0.52),
]

I: N[C@H](C[C@H]1CC(C(=O)O)=NN1c1ccc(Br)cc1)C(=O)O
II: N[C@H](C[C@H]1CC(C(=O)O)=NN1c1ccc(F)cc1)C(=O)O
Data request: Between I and II , which one shows the larger IC50 value? Reply briefly: the label of your chosen item.
Data returned: II

---

Let's go through some recorded pKi values for GluN1/2D receptors (Rattus norvegicus, UniProt P35439+Q62645) together.
pKi: −log10 of the molar value.
quantity-name: pKi

Past entries and their recorded results:
# molecule, tested-on, result-number
rows = [
    ("Cc1ccc(N2N=C(C(=O)O)C[C@@H]2C[C@@H](N)C(=O)O)cc1 [4e]", "GluN1/2D receptors (Rattus norvegicus, UniProt P35439+Q62645)", 6.36),
    ("N[C@H](C[C@H]1CC(C(=O)O)=NN1c1ccc(Br)cc1)C(=O)O [4c]", "GluN1/2D receptors (Rattus norvegicus, UniProt P35439+Q62645)", 6.70),
]

I: N[C@H](C[C@H]1CC(C(=O)O)=NN1c1ccc(Cl)cc1)C(=O)O [4b]
II: N[C@H](C[C@H]1CC(C(=O)O)=NN1c1ccc(F)cc1)C(=O)O [4a]
Data request: Between I and II , which one shows the larger pKi value? Reply briefly: the label of your chosen item.
Data returned: I

---

pKi: −log10 of the molar value.
Let's go through some recorded pKi values for GluN1/2A receptors (Rattus norvegicus, UniProt P35439+Q00959) together.
quantity-name: pKi

a: Cc1ccc(N2N=C(C(=O)O)C[C@@H]2C[C@@H](N)C(=O)O)cc1 [4e]
b: N[C@H](C[C@H]1CC(C(=O)O)=NN1c1ccc(I)cc1)C(=O)O [4d]
c: N[C@H](C[C@H]1CC(C(=O)O)=NN1c1ccc(Cl)cc1)C(=O)O [4b]
Data request: Quick favor: sort the molecules up above by pKi, largest first. Please write the labels in the order that was asked for.
Data returned: c, a, b
(c: 7.57, a: 7.32, b: 6.60)

a: N[C@H](C[C@H]1CC(C(=O)O)=NN1c1ccc(F)cc1)C(=O)O [4a]
b: N[C@H](C[C@H]1CC(C(=O)O)=NN1c1ccc(Br)cc1)C(=O)O [4c]
Data request: Between a and b , which one shows the larger pKi value? Reply briefly: the label of your chosen item.
Data returned: b

---

# tested-on: GluN1/2B receptors (Rattus norvegicus, UniProt P35439+Q00960)
# Sequence (Q00960 27-1482, other chains not shown): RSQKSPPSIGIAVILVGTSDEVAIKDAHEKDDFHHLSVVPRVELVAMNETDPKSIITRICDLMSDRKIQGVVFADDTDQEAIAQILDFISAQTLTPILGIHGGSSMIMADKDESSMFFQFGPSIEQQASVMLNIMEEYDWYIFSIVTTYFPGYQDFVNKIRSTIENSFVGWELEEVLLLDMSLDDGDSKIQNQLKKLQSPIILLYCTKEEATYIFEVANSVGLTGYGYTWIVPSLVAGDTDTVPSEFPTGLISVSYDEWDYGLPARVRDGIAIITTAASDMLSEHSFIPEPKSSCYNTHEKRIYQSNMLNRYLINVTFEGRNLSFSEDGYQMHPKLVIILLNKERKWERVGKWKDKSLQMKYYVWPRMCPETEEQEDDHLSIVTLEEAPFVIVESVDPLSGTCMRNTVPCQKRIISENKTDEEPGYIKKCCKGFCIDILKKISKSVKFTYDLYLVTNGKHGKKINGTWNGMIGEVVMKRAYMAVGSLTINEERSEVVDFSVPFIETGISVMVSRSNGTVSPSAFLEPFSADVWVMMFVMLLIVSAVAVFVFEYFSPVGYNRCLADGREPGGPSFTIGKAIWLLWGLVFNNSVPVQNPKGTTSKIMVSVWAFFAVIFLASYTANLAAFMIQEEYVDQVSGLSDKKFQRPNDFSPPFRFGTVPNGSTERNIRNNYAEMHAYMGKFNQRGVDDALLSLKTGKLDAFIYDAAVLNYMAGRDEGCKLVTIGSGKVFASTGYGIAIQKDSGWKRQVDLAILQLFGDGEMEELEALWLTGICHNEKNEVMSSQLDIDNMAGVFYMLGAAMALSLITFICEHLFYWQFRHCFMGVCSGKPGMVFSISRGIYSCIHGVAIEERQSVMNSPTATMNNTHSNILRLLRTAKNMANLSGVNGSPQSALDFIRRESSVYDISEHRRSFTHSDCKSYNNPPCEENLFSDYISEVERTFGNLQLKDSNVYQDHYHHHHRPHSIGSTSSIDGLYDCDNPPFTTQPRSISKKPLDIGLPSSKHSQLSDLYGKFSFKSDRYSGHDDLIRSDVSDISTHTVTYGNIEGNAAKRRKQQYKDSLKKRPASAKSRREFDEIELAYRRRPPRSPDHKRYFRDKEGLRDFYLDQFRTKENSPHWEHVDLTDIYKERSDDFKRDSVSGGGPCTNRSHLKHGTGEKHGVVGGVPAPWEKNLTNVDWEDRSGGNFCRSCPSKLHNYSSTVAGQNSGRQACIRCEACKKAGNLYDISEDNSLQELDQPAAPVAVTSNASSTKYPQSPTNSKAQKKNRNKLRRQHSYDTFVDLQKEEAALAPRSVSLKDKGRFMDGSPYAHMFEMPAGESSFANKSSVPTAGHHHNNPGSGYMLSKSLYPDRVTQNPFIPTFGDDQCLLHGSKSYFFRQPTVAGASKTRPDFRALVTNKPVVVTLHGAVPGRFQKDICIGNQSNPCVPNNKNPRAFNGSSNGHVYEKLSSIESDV
quantity-name: Ki (nM)

# test-smiles, quantity-name, units-symbol, result-number
records = [
    ("N[C@H](C[C@H]1CC(C(=O)O)=NN1c1ccc(I)cc1)C(=O)O", "Ki", "nM", 270),
]

A: Cc1ccc(N2N=C(C(=O)O)C[C@@H]2C[C@@H](N)C(=O)O)cc1
B: N[C@H](C[C@H]1CC(C(=O)O)=NN1c1ccc(Cl)cc1)C(=O)O
Data request: Between A and B , which one shows the larger Ki value? Reply briefly: the label of your chosen item.
Data returned: A
(A: 250 nM, B: 110 nM)

I: N[C@H](C[C@H]1CC(C(=O)O)=NN1c1ccc(F)cc1)C(=O)O
II: N[C@H](C[C@H]1CC(C(=O)O)=NN1c1ccc(Br)cc1)C(=O)O
Data request: Dear colleague, could you let me know whether I or II has the lower recorded Ki? Thanks. Reply briefly: the label of your chosen item.
Data returned: II

---

Let's go through some recorded Ki values for GluN1/2C receptors (Rattus norvegicus, UniProt P35439+Q00961) together.
quantity-name: Ki (nM)

Past entries and their recorded results:
# compound, tested-on, Ki, nM
rows = [
    ("Cc1ccc(N2N=C(C(=O)O)C[C@@H]2C[C@@H](N)C(=O)O)cc1 [4e]", "GluN1/2C receptors (Rattus norvegicus, UniProt P35439+Q00961)", 96),
    ("N[C@H](C[C@H]1CC(C(=O)O)=NN1c1ccc(Cl)cc1)C(=O)O [4b]", "GluN1/2C receptors (Rattus norvegicus, UniProt P35439+Q00961)", 44),
    ("N[C@H](C[C@H]1CC(C(=O)O)=NN1c1ccc(Br)cc1)C(=O)O [4c]", "GluN1/2C receptors (Rattus norvegicus, UniProt P35439+Q00961)", 47),
]

A: N[C@H](C[C@H]1CC(C(=O)O)=NN1c1ccc(F)cc1)C(=O)O [4a]
B: N[C@H](C[C@H]1CC(C(=O)O)=NN1c1ccc(I)cc1)C(=O)O [4d]
Data request: Between A and B , which one shows the larger Ki value? Reply briefly: the label of your chosen item.
Data returned: A

---

Let's go through some recorded IC50 values for GluN1/2B receptors (Rattus norvegicus, UniProt P35439+Q00960) together.
quantity-name: IC50 (nM)

P: N[C@H](C[C@H]1CC(C(=O)O)=NN1c1ccc(F)cc1)C(=O)O [4a]
Q: N[C@H](C[C@H]1CC(C(=O)O)=NN1c1ccc(Cl)cc1)C(=O)O [4b]
Data request: Between P and Q , which one shows the larger IC50 value? Reply briefly: the label of your chosen item.
Data returned: P
(P: 860 nM, Q: 280 nM)

---

# tested-on: GluN1/2B receptors (Rattus norvegicus, UniProt P35439+Q00960)
quantity-name: IC50 (nM)

A: Cc1ccc(N2N=C(C(=O)O)C[C@@H]2C[C@@H](N)C(=O)O)cc1
B: N[C@H](C[C@H]1CC(C(=O)O)=NN1c1ccc(Br)cc1)C(=O)O
Data request: Dear colleague, could you let me know whether A or B has the lower recorded IC50? Thanks. Reply briefly: the label of your chosen item.
Data returned: B
